Numbers sourced from PubChem BioAssay AID1159580.

Assay Remarks: chemical genetic growth profiling, strain panel (AID 1159580);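 also: tested at 20 µM; growth read once vehicle control cultures reached saturation at 30 °C; 1 = growth at the plate median or of vehicle wells; lower values mean less growth of the strain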
Measurement Parameters: S. cerevisiae deletion strains, growth OD, locus YEL061C, strain CIN8 (second series), hits give low values
Screen size: about 5,500 compounds; about 2,000 (36%) were called active. Another 18% or so got no clear call; they are omitted. The list shows a part of the results.
This section presents compounds with their documented normalized growth values.
Hey, just send me the number, nothing else.

Use these answered entries as a reference point.
{"columns": ["Compound", "Recorded Endpoint", "Quantitative Readout"],
 "data": [
  ["O=C(O)c1nc2cc(Cl)c(Cl)cc2[nH]c1=O", "normalized growth", 1.02],
  ["CN1CCOC(c2ccccc2)c2ccccc2C1 (stereo not drawn)", "normalized growth", 0.971],
  ["O=c1[nH]c2cc(Cl)c(Cl)cc2[nH]c1=O", "normalized growth", 1.01],
  ["NCC(=O)CCC(=O)O", "normalized growth", 0.99]
]}

Form field: reported normalized growth of Nc1nc(N)c2nc(-c3ccccc3)c(N)nc2n1
1

Form field: reported normalized growth of COCCOC(=O)C1=C(C)NC(C)=C(C(=O)OC(C)C)C1c1cccc([N+](=O)[O-])c1 (stereo not drawn)
1

---

Assay Remarks: chemical genetic growth profiling, strain panel (AID 1159580);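 also: tested at 20 µM; growth read once vehicle control cultures reached saturation at 30 °C; 1 = growth at the plate median or of vehicle wells; lower values mean less growth of the strain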
Measurement Parameters: S. cerevisiae deletion strains, growth OD, locus YOR080W, strain dia2
Out of some 5,500 compounds screened, about 2,000 (36%) were called active. Not shown: some 18% with an inconclusive outcome. Rule as the data show it: active = normalized growth mostly below about 0.91 (no sharp cut-off); inconclusive = no clear call, values can overlap the other calls; inactive = mostly above about 0.92. Some of the results follow.
Entry note: the call must match one of active, inactive

{"columns": ["Compound", "Label"],
 "data": [
  ["CC(=O)Nc1ccc(OC(=O)c2ccccc2O)cc1", "inactive"],
  ["CC(=O)[C@H]1CCC2C3CC=C4C[C@@H](O)CC[C@]4(C)C3CC[C@@]21C (stereo partly specified)", "inactive"],
  ["NC(=O)CC[C@@H](N)C(=O)O", "inactive"],
  ["CC[N+]1(C)CCCC(OC(=O)C(O)(c2ccccc2)c2ccccc2)C1 (stereo unspecified)", "inactive"],
  ["CC1=CCc2c(cc3oc(C)cc(=O)c3c2O)OC1", "inactive"],
  ["CC(=O)Nc1cccc(O)c1", "inactive"],
  ["Nc1ccc(C(=O)O)c(O)c1", "inactive"],
  ["CN(C)CC/C=C1/c2ccccc2COc2ccccc21", "inactive"],
  ["Cn1c(=O)c2[nH]c(C3CCCC3)nc2n(C)c1=O", "inactive"],
  ["C=C1C2CC[C@@]3(C)[C@H](c4ccoc4)OC(=O)C[C@]13O[C@H]1CC(=O)C(C)(C)[C@H](C(O)C(=O)OC)[C@@]21C (stereo partly specified)", "inactive"]
]}

Consider now this further compound.
Dear all, I need the recorded test outcome for CC(C)=CCc1c2c(c(O)c3c(=O)c(O)c(-c4ccccc4)oc13)C=CC(C)(C)O2 , thank you.
active

---

Assay Remarks: chemical genetic growth profiling, strain panel (AID 1159580);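 also: tested at 20 µM; growth read once vehicle control cultures reached saturation at 30 °C; 1 = growth at the plate median or of vehicle wells; lower values mean less growth of the strain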
Measurement Parameters: S. cerevisiae deletion strains, growth OD, locus YDR392W, strain spt3
Among all 5,500 compounds or so, about 2,000 (36%) were called active. Inconclusive results (about 18%) are left out. No stated cut-off is given here; in the data, active means normalized growth mostly below about 0.91 (no sharp cut-off); inconclusive means no clear call, values can overlap the other calls; inactive means mostly above about 0.92. This is one part of the list.
Entry note: the call must match one of active, inactive

Example entries and their recorded answers appear below.
{"columns": ["Molecule", "Label"],
 "data": [
  ["C=CCc1ccccc1OCC(O)CNC(C)C (configuration not stated)", "inactive"],
  ["CCCCCCc1ccc(O)cc1O", "active"],
  ["O=c1c(-c2ccc(O)cc2)coc2cc(O)cc(O)c12", "inactive"],
  ["Cc1cc2cc3c(C)cc(=O)oc3c(C)c2o1", "inactive"],
  ["N[C@H](CO)Cc1ccccc1", "inactive"],
  ["CC1(C)O[C@@H]2CC3C4C[C@H](F)C5=CC(=O)C=CC5(C)C4C(O)CC3(C)[C@]2(C(=O)CO)O1 (some centres not stated)", "inactive"],
  ["Nc1nc(N)c2nc(-c3ccccc3)c(N)nc2n1", "inactive"],
  ["O=c1cc(-c2ccc(O)cc2)oc2ccc(O)cc12", "inactive"],
  ["COc1cccc(-c2cc(=O)c3ccc(OC)cc3o2)c1", "active"],
  ["O=c1c(-c2ccccc2)coc2cc(O)cc(O)c12", "inactive"]
]}

Dear all, I need the recorded test outcome for CCCCC1C(=O)N(c2ccccc2)N(c2ccccc2)C1=O , thank you.
inactive

Dear all, I need the recorded test outcome for O=c1cc(-c2cccc(O)c2)oc2ccc(O)cc12 , thank you.
inactive
